Data origin, for the record: the kinase profiling compilation of Christmann-Franck et al. (2016)

- target or system: PRKD1 (human) (UniProt Q15139)
- Sequence (Q15139 whole entry, looked up): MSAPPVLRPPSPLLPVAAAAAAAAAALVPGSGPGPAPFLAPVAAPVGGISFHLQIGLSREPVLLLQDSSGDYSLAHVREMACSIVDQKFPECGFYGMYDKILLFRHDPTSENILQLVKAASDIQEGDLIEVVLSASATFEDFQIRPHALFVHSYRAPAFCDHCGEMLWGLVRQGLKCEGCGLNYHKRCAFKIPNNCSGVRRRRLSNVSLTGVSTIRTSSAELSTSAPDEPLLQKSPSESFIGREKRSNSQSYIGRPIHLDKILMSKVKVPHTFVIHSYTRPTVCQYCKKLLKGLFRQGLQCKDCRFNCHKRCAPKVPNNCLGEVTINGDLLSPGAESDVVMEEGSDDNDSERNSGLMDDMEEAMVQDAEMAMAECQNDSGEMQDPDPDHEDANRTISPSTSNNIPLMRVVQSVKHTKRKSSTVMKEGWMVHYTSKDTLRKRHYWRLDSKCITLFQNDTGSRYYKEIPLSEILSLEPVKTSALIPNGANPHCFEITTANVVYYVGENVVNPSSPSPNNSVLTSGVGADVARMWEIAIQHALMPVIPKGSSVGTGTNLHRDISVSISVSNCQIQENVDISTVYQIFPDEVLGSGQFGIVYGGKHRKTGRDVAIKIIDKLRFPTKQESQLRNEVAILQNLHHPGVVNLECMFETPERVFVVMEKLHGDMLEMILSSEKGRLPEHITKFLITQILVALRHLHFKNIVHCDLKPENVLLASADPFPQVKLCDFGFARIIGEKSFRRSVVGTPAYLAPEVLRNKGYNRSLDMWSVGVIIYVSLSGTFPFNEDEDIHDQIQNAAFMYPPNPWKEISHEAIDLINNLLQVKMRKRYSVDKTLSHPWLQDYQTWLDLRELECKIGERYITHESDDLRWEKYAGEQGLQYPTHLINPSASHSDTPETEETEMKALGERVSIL
- test summary: KINOMEscan competition binding
- stated conditions: compound 10.0 µM
outcome measure: kinase still bound, per cent of control (%)
Numbers only, in %.

Solved entries:
| sample smiles | uom | kinase still bound, per cent of control |
| --- | --- | --- |
| N#Cc1c(NC(=O)c2cccc3ccccc23)sc2c1CCCC2 | % | 100 |
| O=C(NC1CC1)c1cccc(-c2ccc3c(NC(=O)C4CC4)n[nH]c3c2)c1 | % | 100 |

Dear colleague, could you send me kinase still bound, per cent of control for each of the items below? Thanks.
1. CC[C@@H]1C(=O)N(C)c2cnc(Nc3ccc(C(=O)NC4CCN(C)CC4)cc3OC)nc2N1C1CCCC1
2. O=C(O)c1ccc(Nc2ncc3c(n2)-c2ccc(Cl)cc2C(c2c(F)cccc2F)=NC3)cc1

Result string:
[7, 92]

Please go through the list and note kinase still bound, per cent of control for each compound.
1. C[C@@H](Oc1cc(-n2cnc3ccc(CN4CCN(C)CC4)cc32)sc1C(N)=O)c1ccccc1C(F)(F)F
2. OCCCNc1cc(-c2ccnc(Nc3cccc(Cl)c3)n2)ccn1

Result string:
1. 20
2. 100

###

Could you please report measured kinase still bound, per cent of control for the items listed next?
- target or system: UniProtKB P36894
- Sequence (P36894 whole entry, looked up): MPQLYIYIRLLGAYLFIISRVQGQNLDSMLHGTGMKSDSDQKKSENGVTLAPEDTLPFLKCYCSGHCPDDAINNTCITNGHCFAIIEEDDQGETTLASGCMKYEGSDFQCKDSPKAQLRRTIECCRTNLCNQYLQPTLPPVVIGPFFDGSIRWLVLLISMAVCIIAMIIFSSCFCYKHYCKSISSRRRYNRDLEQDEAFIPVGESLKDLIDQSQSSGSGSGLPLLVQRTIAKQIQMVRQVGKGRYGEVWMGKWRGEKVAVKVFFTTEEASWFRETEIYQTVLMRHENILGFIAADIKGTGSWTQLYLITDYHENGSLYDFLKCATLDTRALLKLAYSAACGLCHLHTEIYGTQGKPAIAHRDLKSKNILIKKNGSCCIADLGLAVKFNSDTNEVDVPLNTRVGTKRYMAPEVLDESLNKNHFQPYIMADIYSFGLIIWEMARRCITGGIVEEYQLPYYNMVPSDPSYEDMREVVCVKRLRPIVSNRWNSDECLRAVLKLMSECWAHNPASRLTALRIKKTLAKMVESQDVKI
- test summary: KINOMEscan competition binding
- stated conditions: compound 10.0 µM
# output: numeric value plus its unit

Reference set, count: 4
| sample smiles | target or system | kinase still bound, per cent of control |
| --- | --- | --- |
| O=C(NOC[C@H](O)CO)c1ccc(F)c(F)c1Nc1ccc(I)cc1F | UniProtKB P36894 | 100% |
| Cc1cc([C@@H](C)Nc2ccccc2C(=O)O)c2nc(N3CCOCC3)cc(=O)n2c1 | UniProtKB P36894 | 97% |
| Cc1ccc(NC(=O)c2cccc(C(C)(C)C#N)c2)cc1Nc1ccc2ncn(C)c(=O)c2c1 | UniProtKB P36894 | 100% |
| C[C@@H](Oc1cc(-n2cnc3ccc(CN4CCN(C)CC4)cc32)sc1C(N)=O)c1ccccc1C(F)(F)F | UniProtKB P36894 | 28% |

Consider the following items and state reported kinase still bound, per cent of control for each.
1. Nc1ccc(-c2ccc3ncc4ccc(=O)n(-c5cccc(C(F)(F)F)c5)c4c3c2)cn1
2. CN(C)C/C=C/C(=O)Nc1cccc(Nc2ncc3c(n2)N(C)c2ccccc2C(=O)N3C)c1
3. O=C(NC1CC1)c1cccc(-c2ccc3c(NC(=O)C4CC4)n[nH]c3c2)c1
4. O=C(O)c1ccc(Nc2ncc3c(n2)-c2ccc(Cl)cc2C(c2c(F)cccc2F)=NC3)cc1
5. O=C1Nc2ccc(I)cc2/C1=C/c1cc(Br)c(O)c(Br)c1
6. CCOc1cc2ncc(C#N)c(Nc3ccc(OCc4ccccn4)c(Cl)c3)c2cc1NC(=O)/C=C/CN(C)C

Result string:
1. 100%
2. 0.65%
3. 76%
4. 36%
5. 8.8%
6. 89%

Below are 8 compounds. Give each one its kinase still bound, per cent of control.
1. N#Cc1c(NC(=O)c2cccc3ccccc23)sc2c1CCCC2
2. C=CC(=O)Nc1cccc(Oc2nc(Nc3ccc(N4CCN(C)CC4)cc3OC)ncc2Cl)c1
3. COc1cc(C(=O)NC2CCN(C)CC2)ccc1Nc1ncc2c(n1)N(C1CCCC1)CCC(=O)N2C(C)C
4. Cc1ccc(C(=O)Nc2cccc(C(F)(F)F)c2)cc1Nc1cncc(C(N)=O)c1
5. C=CC(=O)Nc1cc(NC(=O)c2ccc(C)c(NC(=O)c3ccno3)c2)cc(C(F)(F)F)c1
6. OCCCNc1cc(-c2ccnc(Nc3cccc(Cl)c3)n2)ccn1
7. CC[C@@H]1C(=O)N(C)c2cnc(Nc3ccc(C(=O)NC4CCN(C)CC4)cc3OC)nc2N1C1CCCC1
8. CCCS(=O)(=O)Nc1ccc(F)c(C(=O)c2c[nH]c3ncc(-c4ccc(Cl)cc4)cc23)c1F

Result string:
1: 96%; 2: 100%; 3: 100%; 4: 100%; 5: 100%; 6: 100%; 7: 100%; 8: 34%

Query string: Return kinase still bound, per cent of control measured with UniProtKB P36894 given this compound: C=CC(=O)Nc1cccc(Nc2nc(N[C@H]3CC[C@H](N(C)C)CC3)nc3c2ncn3C(C)C)c1
Result string: 100%
